These entries and their values trace back to patent US7563796B2.

Classify as follows. Reported melting point greater than or equal to 100 °C: Yes. Reported melting point below: No.

Quick check, melting point >= 100 °C? NC1=NC(c2ccccc2)(c2cccc(Cc3ccc(F)cc3)c2)C2=NCCCN12 (stereo not shown)
Yes

Try this compound next: COc1ccc(Cc2cccc(C3(c4ccccc4)N=C(N)N4CCCN=C43)c2)cc1 (stereo not shown)
Yes

Try this compound next: NC1=NC(c2ccccc2)(c2cccc(Oc3ccc(F)cc3)c2)C2=NCCCN12 (stereo not shown)
Yes

Try this compound next: NC1=NC(c2ccccc2)(c2cccc(Cc3ccccc3)c2)C2=NCCCN12 (stereo not shown)
No

Try this compound next: CC(C)(C)c1ccc(C2(c3ccccc3)N=C(N)N3CCCN=C32)cc1 (stereo not shown)
Yes
